Recorded values, source patent US9656988B2.

target: BTK (Homo sapiens (Human), UniProt Q06187); test: Btk in vitro inhibitory activity (one of Method A TR-FRET, Method B electrophoretic mobility shift, Method C radiometric filter binding); format: biochemical; details: read-out: Btk (IC50)
Sequence (Q06187 whole entry): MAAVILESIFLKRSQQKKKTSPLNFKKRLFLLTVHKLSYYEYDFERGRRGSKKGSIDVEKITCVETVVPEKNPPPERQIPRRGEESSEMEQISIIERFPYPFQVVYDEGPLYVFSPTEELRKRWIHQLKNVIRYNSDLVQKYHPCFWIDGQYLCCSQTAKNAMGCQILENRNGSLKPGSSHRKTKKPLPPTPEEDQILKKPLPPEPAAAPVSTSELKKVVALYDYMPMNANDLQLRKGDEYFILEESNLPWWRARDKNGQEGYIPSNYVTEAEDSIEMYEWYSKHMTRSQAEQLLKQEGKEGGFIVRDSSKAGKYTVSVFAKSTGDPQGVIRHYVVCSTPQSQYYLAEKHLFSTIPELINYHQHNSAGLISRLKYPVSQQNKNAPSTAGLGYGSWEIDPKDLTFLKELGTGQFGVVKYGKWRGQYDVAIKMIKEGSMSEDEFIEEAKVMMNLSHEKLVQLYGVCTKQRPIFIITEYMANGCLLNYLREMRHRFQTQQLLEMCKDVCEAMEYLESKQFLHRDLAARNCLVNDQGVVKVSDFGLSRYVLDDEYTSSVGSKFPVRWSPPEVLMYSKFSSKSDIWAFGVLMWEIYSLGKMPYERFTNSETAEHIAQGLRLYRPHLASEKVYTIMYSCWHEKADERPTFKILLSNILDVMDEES
pIC50: −log10 of the molar value.
observation type: pIC50

Worked cases, pIC50 given:
{"columns": ["input smiles", "subject of test", "pIC50"],
 "data": [
  ["CN1CCC(c2ccc(Nc3nc(N4CCC[C@@H](NC(=O)c5ccc(C(C)(C)C)cc5)C4)cnc3C(N)=O)cc2)CC1", "BTK (Homo sapiens (Human), UniProt Q06187)", "> 8.00"],
  ["CN(C)C(=O)N[C@@H]1CCCN(c2cnc(C(N)=O)c(Nc3ccc(C(C)(C)C#N)cc3)n2)C1", "BTK (Homo sapiens (Human), UniProt Q06187)", "> 8.00"],
  ["CN(C)C(=O)N[C@@H]1CCCN(c2cnc(C(N)=O)c(Nc3ccc(C4CCN(c5ccccn5)CC4)cc3)n2)C1", "BTK (Homo sapiens (Human), UniProt Q06187)", "7.00 to 8.00"],
  ["CCN(C)C(=O)N[C@@H]1CCCN(c2cnc(C(N)=O)c(Nc3ccc(C4CCN(C5CCCC5)CC4)cc3)n2)C1", "BTK (Homo sapiens (Human), UniProt Q06187)", "> 8.00"],
  ["C[C@@H]1[C@H](NC(=O)N(C)C)CCCN1c1cnc(C(N)=O)c(Nc2ccc(C3CCN(C4CCCC4)CC3)cc2)n1", "BTK (Homo sapiens (Human), UniProt Q06187)", "> 8.00"],
  ["NC(=O)c1ncc(N2CCC[C@@H](NC(=O)c3cncc(Cl)c3)C2)nc1Nc1ccc(C2CCN(C3CC3)CC2)cc1", "BTK (Homo sapiens (Human), UniProt Q06187)", "> 8.00"]
]}

Next compound, pIC50 to be filled in.
Input line: So what does the record say about pIC50 for CCN1CCN([C@@H]2CCCN(c3cnc(C(N)=O)c(Nc4ccc(C5CCN(C6CCCC6)CC5)cc4)n3)C2)C1=O ?
Output line: > 8.00

----------
molecular target: BTK (Homo sapiens (Human), UniProt Q06187); test: Btk in vitro inhibitory activity (one of Method A TR-FRET, Method B electrophoretic mobility shift, Method C radiometric filter binding); assay type: biochemical; conditions: read-out: Btk (IC50)
# IC50 values compiled below

// worked examples, IC50 included
{"columns": ["input smiles", "IC50"],
 "data": [
  ["CC#CC(=O)N1CCC[C@@H](N(C)c2cnc(C(N)=O)c(Nc3ccc(C(=O)N4CCOCC4)cc3)n2)C1", "< 0.01 µM"],
  ["NC(=O)c1nnc(N2CCC[C@@H](NC(=O)c3cc(C4CC4)on3)C2)nc1Nc1ccc(C(=O)N2CCOCC2)cc1", "0.01 to 0.1 µM"]
]}

Input line: May I ask what IC50 has been recorded for CN1CCN(c2ccc(Nc3nc(N4CCC[C@@H](NC(=O)c5ccc(C(C)(C)C)cc5)C4)cnc3C(N)=O)cc2)CC1 ?
Output line: < 0.01 µM

Input line: # IC50 lookup, item CN(C)C(=O)N[C@@H]1CCCN(c2cnc(C(N)=O)c(Nc3ccc(C4(C#N)CC4)cc3)n2)C1
Output line: < 0.01 µM

Input line: Report IC50 for CN(C)C(=O)N[C@@H]1CCCN(c2cnc(C(N)=O)c(Nc3ccc(C4(C(=O)N(C)C)CC4)cc3)n2)C1 please.
Output line: < 0.01 µM

Input line: Query (compound): CC(C)Oc1ccc(C(=O)N[C@@H]2CCCN(c3nnc(C(N)=O)c(Nc4ccc(C(=O)N5CCOCC5)cc4)n3)C2)cc1 ; field requested: IC50
Output line: 0.01 to 0.1 µM

Input line: Fill in the blank: the reported IC50 of NC(=O)c1ncc(N2CCCC[C@@H](NC(=O)C3CC3)C2)nc1Nc1ccc(C2CCN(C3CCCC3)CC2)cc1 is ____.
Output line: < 0.01 µM
